Assay: Pharmacokinetics assay in SD rats after intragastric administration (plasma LC/MS/MS)
Format: in vivo
Conditions: both sexes, rat, plasma, po 5.0 mg/kg, 0.5% CMC-Na suspension, read-out: T1/2 (half-life) (converted)
outcome-measure: half-life (h)

>  <molecule>
COc1cc(C(=O)NC2CCN(C[C@H](O)c3ccc4c(c3C)COC4=O)CC2)ncc1C#N.O=C(O)CC(O)C(=O)O [Crystal form 2 of the malate]

>  <measured-number>
5.24

$$$$
